- study system: T1, HA peptide (Octet assay of PS621 variants)
- T1 construct: XAKLDEESILKQK with X = H
- T1 peptide: HAKLDEESILKQK
- method description: Octet (BLI), 30 C
API: label(entry) gives 1 if the entry's Octet response is strictly smaller than 2; on equality or larger values it gives 0.

Study these solved cases before continuing.
PS1119 (designed binder, Variant of PS621) MHSKFSHAGRICGAKFKVGEPIYRCKECSFDDTCVLCVNCFNPKDHTGHHVYTTICKEFNNGICDCGDKEAWNHTLFCKAEEG :: 1
PS1118 (designed binder, Variant of PS621) MHSKFSHAGRICGAKFKVGEPIYRCKECSFDDTCVLCVNCFNPKDHTGHHVYTTICTKFNNGICDCGDKEAWNHTLFCKAEEG :: 1
PS1115 (designed binder, Variant of PS621) MHSKFSHAGRICGAKFKVGEPIYRCKECSFDDTCVLCVNCFNPKDHRGHHVYTTICTERNNGICDCGDKEAWNHELFCKAEEG :: 0

For PS1113 (designed binder, Variant of PS621) MHSKFSHAGRICGAKFKVGEPIYRCKECSFDDTCVLCVNCFNPKDHTGHHVYTTICTEFNNGICDCGDKEAWNKTLFCKAEEG , is the recorded Octet response below the cut-off of 2?
1
